test system: SUM159PT; assay: Antiproliferation, CellTiter-Glo, 5 days, SUM159PT; format: cell-based; conditions: AR+ TNBC
pIC50: −log10 of the molar value.
reported.property: pIC50

What pIC50 appears in the records for this compound with SUM159PT? CNC(=O)c1ccc(N2C(=S)N(c3ccc(C#N)c(C(F)(F)F)c3)C(=O)C2(C)C)cc1F
< 5.00

----------
test system: MFM-223; assay: Antiproliferation, CellTiter-Glo, 5 days, MFM-223; type: cell-based; details: Homo sapiens, 120 h, MFM-223, AR+ TNBC
reported.property: pIC50
pIC50 (log units): -log10 of the concentration in mol/L.

In the examples that follow, each entry is paired with its recorded pIC50.
Consider the molecule COc1cc(O[C@H]2C(C)(C)[C@H](NC(=O)c3ccc(N4CCC(CN5CCN(c6ccc(C(=O)N[C@H]7CCC(=O)NC7=O)c(F)c6)CC5)CC4)cc3)C2(C)C)ccc1C#N and give its measured pIC50.
5.27

Consider the molecule N#Cc1ccc(O[C@H]2CC[C@H](NC(=O)c3ccc(N4CCC(CN5CCN(c6cc7c(cc6F)C(=O)N(C6CCC(=O)NC6=O)C7=O)CC5)CC4)nn3)CC2)cc1Cl (stereo partly drawn) [ARV-110, reference compound] and give its measured pIC50.
5.40

Next:
Consider the molecule N#Cc1ccc(O[C@H]2CC[C@H](NC(=O)c3cnc(N4CCC(CN5CCC6(CC5)CN(c5ccc7c(c5)C(=O)N(C5CCC(=O)NC5=O)C7=O)C6)CC4)nn3)CC2)cc1Cl (stereo partly drawn) and give its measured pIC50.
6.34

----------
Below is a list of entries, each paired with its recorded IC50 value.
tested on: MDA-MB-453 cells; assay: Inhibition of proliferation of MDA-MB-453 cells (CCK-8 or CTG, 7-10 days); format: cell-based; conditions: Homo sapiens, co-incubation 7-10 days, CCK-8 or CTG, read-out: IC50 values against MDA-MB-453 cells

In the examples that follow, each entry is paired with its recorded IC50.
What IC50 appears in the records for this molecule with MDA-MB-453 cells? N#Cc1ccc(O[C@H]2CC[C@H](NC(=O)c3ccc(N4CCC5(CCN(CC6CCN(c7cc8c(cc7F)C(=O)N(C7CCC(=O)NC7=O)C8=O)CC6)C5)C4)nn3)CC2)cc1Cl (some centres unmarked) [Compound 162]
> 2000 nM

What IC50 appears in the records for this molecule with MDA-MB-453 cells? CC1(C)[C@H](Oc2ccc(C#N)c(Cl)c2)C(C)(C)[C@@H]1N1Cc2nc(C#C[C@H]3C[C@H](N4CCN(c5cc6c(cc5F)C(=O)N(C5CCC(=O)NC5=O)C6=O)CC4)C3)ccc2C1=O (some centres unmarked) [Compound 357]
≤ 2000 nM

What IC50 appears in the records for this molecule with MDA-MB-453 cells? N#Cc1ccc(O[C@H]2CC[C@H](NC(=O)c3ccc(N4CC5CN(CC6CCN(c7cc8c(cc7F)C(=O)N(C7CCC(=O)NC7=O)C8=O)CC6)CC5C4)nn3)CC2)cc1Cl (some centres unmarked) [Compound 259]
> 2000 nM

Next:
What IC50 appears in the records for this molecule with MDA-MB-453 cells? N#Cc1ccc(O[C@H]2CC[C@H](NC(=O)c3ccc(N4CCC(CN5CCC6(CC5)CN(c5ccc7c(c5)C(=O)N(C5CCC(=O)NC5=O)C7=O)C6)CC4)nn3)CC2)cc1Cl (some centres unmarked) [Compound 230]
> 2000 nM

What IC50 appears in the records for this molecule with MDA-MB-453 cells? COc1cc(O[C@H]2C(C)(C)[C@H](N3Cc4nc(C#C[C@H]5CC[C@H](N6CCN(c7ccc8c(c7)C(=O)N(C7CCC(=O)NC7=O)C8=O)CC6)CC5)ccc4C3=O)C2(C)C)ccc1C#N (some centres unmarked) [Compound 400]
≤ 2000 nM

The measurements presented in this section are drawn from patent US20250082763A1.
